// data source = patent US11306100B2

target: recombinant GSK3β (Homo sapiens); assay: ADP-Glo kinase assay of GSK3β activity; type: biochemical; conditions: GSK3β kinase activity
Sequence (P49841 whole entry): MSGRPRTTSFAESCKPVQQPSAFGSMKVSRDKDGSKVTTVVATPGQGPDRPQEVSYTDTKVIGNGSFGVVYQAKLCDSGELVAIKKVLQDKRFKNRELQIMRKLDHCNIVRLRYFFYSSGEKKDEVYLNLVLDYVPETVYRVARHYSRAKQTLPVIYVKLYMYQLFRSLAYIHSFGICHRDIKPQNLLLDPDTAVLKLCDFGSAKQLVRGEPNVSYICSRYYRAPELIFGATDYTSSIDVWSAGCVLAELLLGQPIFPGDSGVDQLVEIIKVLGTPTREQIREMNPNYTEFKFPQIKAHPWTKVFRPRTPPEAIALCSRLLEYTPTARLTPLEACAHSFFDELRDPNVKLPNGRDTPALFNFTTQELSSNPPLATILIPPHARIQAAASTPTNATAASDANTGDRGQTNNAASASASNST
// values below are reported IC50
// units = µM; emit number, no label

Lookup: Returns the measured IC50 for the input molecule. Input: Cc1ccc([N+](=O)[O-])cc1S(=O)(=O)N(C)/N=C/c1cnc2ccc(Br)cn12 [PIK-75, reference compound]
Found: 0.0176

Lookup: Then this molecule: [Cl-].[Li+] [Licl, LiCl, reference compound]
Found: 3990

----------
// values below are reported melting point

Would you please look over these solved cases?
INSERT INTO assay_data (molecule, parameter, reported_result) VALUES
  ('CCOC(=O)c1cn(CC2CC3(CO2)C(=O)Nc2ccccc23)nn1 (centres unmarked) [AB-F]', 'melting point', '133 to 134 °C'),
  ('O=C1Nc2ccccc2C12COC(CN1CCOCC1)C2 (centres unmarked) [AB-K]', 'melting point', '126 to 128 °C'),
  ('COC(=O)c1ccc(-c2cc(Cl)ccc2OCc2cn(CC3CC4(CO3)C(=O)Nc3ccccc34)nn2)nc1C (centres unmarked) [AB-N]', 'melting point', '120 to 122 °C'),
  ('O=C1Nc2ccccc2C12COC(Cn1cc(-c3ccccc3)nn1)C2 (centres unmarked) [AB-C]', 'melting point', '175 to 177 °C'),
  ('O=C1Nc2ccccc2C12COC(CN1CCN(Cc3ccccc3)CC1)C2 (centres unmarked) [AB-R]', 'melting point', '141 to 143 °C');

Lookup: Returns the measured melting point for the input molecule. Input: O=C1Nc2ccccc2C12COC(CN1CCN(c3ccccc3)CC1)C2 (centres unmarked) [AB-X]
Found: 130 to 132 °C

Lookup: Then this molecule: CCOC(=O)c1ccc(-c2cc(Cl)cc(Cl)c2OCc2cn(CC3CC4(CO3)C(=O)Nc3ccccc34)nn2)nc1C (centres unmarked) [AB-W]
Found: 132 to 135 °C

Lookup: Then this molecule: O=C1Nc2ccccc2C12COC(CI)C2 (centres unmarked) [6a]
Found: 170.6 °C

----------
// values below are reported pIC50
target: recombinant GSK3β (Homo sapiens); assay: ADP-Glo kinase assay of GSK3β activity; format: biochemical; details: GSK3β kinase activity, 2 μM ATP
Friendly reminder that pIC50 comes from taking -log10 of the concentration in mol/L.

Would you please look over these solved cases?
INSERT INTO assay_data (compound, reported_result) VALUES
  ('O=C1Nc2ccccc2C12COC(Cn1cc(-c3ccccc3)nn1)C2 (stereo not drawn) [AB-C]', 5.44),
  ('CCOC(=O)c1cn(CC2CC3(CO2)C(=O)Nc2ccccc23)nn1 (stereo not drawn) [AB-F]', 5.33),
  ('O=C1Cc2ccccc2N1 [Oxindole]', 5.19),
  ('CC(=O)Nc1ccccc1 [Acetanilide, reference compound]', 5.19),
  ('CC(C)(O)c1cn(CC2CC3(CO2)C(=O)Nc2ccccc23)nn1 (stereo not drawn) [AB-E]', 5.26);

Lookup: Returns the measured pIC50 for the input compound. Input: O=C1Nc2ccccc2C12COC(CN1CCSCC1)C2 (stereo not drawn) [AB-L]
Found: 5.39
